- Tested on: M14 melanoma
- Experiment: NCI tumour cell line growth inhibition, 48 h
Catalogue of molecules with associated TGI

QUERY: What value of TGI has been reported for the following molecule? COC(=O)Nc1nc2ccc(S(=O)(=O)c3ccc(NC(=O)Nc4cc(C(F)(F)F)ccc4F)cc3)cc2[nH]1
RESULT: > 25 µM

QUERY: What value of TGI has been reported for the following molecule? CCOC(=O)c1c(NC(=O)c2ccc(Br)cc2)sc2c1CCCC2
RESULT: > 100 µM

QUERY: What value of TGI has been reported for the following molecule? CCCc1cc(-c2ccc(-c3cc(CCC)c(C=O)[nH]3)s2)[nH]c1C=O
RESULT: > 100 µM

QUERY: What value of TGI has been reported for the following molecule? NCCSC(C[N+](=O)[O-])c1ccccc1Cl (stereo not given)
RESULT: 6.01 µM

QUERY: What value of TGI has been reported for the following molecule? CCOC(=O)c1cn(CC)c2cc3c(cc2c1=O)SCS3
RESULT: > 100 µM

QUERY: What value of TGI has been reported for the following molecule? COc1ccccc1N1C(=O)CC(=O)N(C(=O)CCCCCCCCC(=O)N2C(=O)CC(=O)N(c3ccccc3OC)C2=S)C1=S
RESULT: > 100 µM

QUERY: What value of TGI has been reported for the following molecule? C=C1C(=O)O[C@H]2[C@H]1CC/C(CNC(=O)/C=C/c1ccc(Cl)cc1Cl)=C\CC[C@@]1(C)O[C@@H]21
RESULT: 3.37 µM

QUERY: What value of TGI has been reported for the following molecule? O=C(NC1C=Nc2ccccc2NC1=O)c1ccccc1Cl (stereo not given)
RESULT: > 100 µM

QUERY: What value of TGI has been reported for the following molecule? CN(C)CC1=Nc2cccc3cccc(c23)N1
RESULT: 34.7 µM

QUERY: What value of TGI has been reported for the following molecule? Cc1cc(Cl)ccc1NC(=O)C(=O)Cc1occc(=O)c1O
RESULT: > 100 µM

---

- Test system: HCT-15 colon
- Experiment: NCI tumour cell line growth inhibition, 48 h
Catalogue of molecules with associated TGI
Respond with the bare value in µM.

Sample records with TGI:
[
  {
    "Smiles str": "O=C1COCCN1c1ccc(NCc2cn(C(=O)c3ccc(Cl)cc3)c3ccccc23)cc1",
    "Assay readout": "TGI",
    "Obs value": 91.2
  },
  {
    "Smiles str": "CC1=C(C(=O)Nc2ccccc2C)C(c2ccccc2C)C(C(=O)Nc2ccccc2C)=C(C)N1",
    "Assay readout": "TGI",
    "Obs value": 40.3
  }
]

QUERY: # query: TGI | item O=C1Nc2ccc(Br)cc2/C1=C/C(=O)c1ccccc1 | system: HCT-15 colon
RESULT: 6.51

---

- Test system: M14 melanoma
- Experiment: NCI tumour cell line growth inhibition, 48 h
Catalogue of compounds with associated TGI

QUERY: What value of TGI has been reported for the following compound? Cc1ncc(CO)c(C=NCCCCCCN=Cc2c(CO)cnc(C)c2O)c1O
RESULT: > 100 µM

---

- Test system: NCI/ADR-RES ovarian
- Experiment: NCI tumour cell line growth inhibition, 48 h
Assay readout: TGI (µM)
Respond with the bare value in µM.

[
  {
    "Molecule": "CCCC(CCC)C(=O)OCC1(CO)C/C(=C\\c2ccc(C(F)(F)F)cc2)C(=O)O1 (stereo unspecified)",
    "TGI [µM]": 32
  }
]

QUERY: What value of TGI has been reported for the following molecule? Oc1ccc(O)c2c1C1(Cl)C(Cl)=C(Cl)C2(Cl)C1(Cl)Cl
RESULT: 9.53

QUERY: What value of TGI has been reported for the following molecule? Cc1ccc(-n2cc(-c3ccc(Cl)cc3)c(C#N)c2N)cc1
RESULT: 39.1

QUERY: What value of TGI has been reported for the following molecule? c1ccc(/C(=N\Nc2ccc3ccccc3n2)c2ccccn2)cc1
RESULT: 14.2
